Experiment: PAMPA (parallel artificial membrane permeability assay)
Format: in vitro ADME
Details: PAMPA; membrane permeation rate (Pe); 50 mM MOPSO buffer pH 6.5 with 5.0% glycocholic acid, 37° C., 18 hours; read-out: iPAMPA Pe
Starred links: 1 amine or outer side, 2 acyl side, 3 side chain; linkers in the order of their positions; H or OH if unused. Positions of bridges follow the written chain, without caps; N, C: chain ends. Non-standard residues stand in square brackets, D forms with d. Residues, ends and D or L forms follow the SMILES beside them. *: point of attachment. NMePhe(3-Cl) = CN[C@@H](Cc1cccc(Cl)c1)C(=O)O; NMeF = CN[C@@H](Cc1ccccc1)C(=O)O; NMeGABA = CN(CCCC(=O)[*:2])[*:1]; NMeβAla = CN(CCC(=O)[*:2])[*:1]; NMeL = CN[C@@H](CC(C)C)C(=O)O; NMeV = CN[C@H](C(=O)O)C(C)C; NMeA = CN[C@@H](C)C(=O)O; Piperidide = C1CCN(*)CC1; Sar = CNCC(=O)O; tBu = CC(C)(C)*
experimental-endpoint: Papp at 18 hours, 50 µM (×10⁻⁶ cm/s)
One number for each entry, in ×10⁻⁶ cm/s.

Sample answers from the record:
[[record]]
compound = "CC(C)C[C@H]1C(=O)N(C)[C@@H](CC(C)C)C(=O)N[C@H](C(=O)N2CCCCC2)CC(=O)N[C@H](C)C(=O)N(C)[C@@H](Cc2ccccc2)C(=O)N(C)[C@@H](CC(C)C)C(=O)N[C@@H]([C@@H](C)O)C(=O)N1C [DP-721] ([dA][NMeF][NMeL]T[NMeL][NMeL]D-Piperidide; lactam N-7)"
experimental_endpoint = "Papp at 18 hours, 50 µM"
units = "×10⁻⁶ cm/s"
result_number = 49

[[record]]
compound = "CC(C)C[C@@H]1NC(=O)[C@H](CC(C)C)N(C)C(=O)CNC(=O)[C@H](C(C)C)N(C)C(=O)[C@H](C)N(C)C(=O)[C@H]([C@@H](C)O)NC(=O)[C@H](C)N(C)C(=O)CCCN(C)C(=O)C[C@@H](C(=O)N(C)[C@@H](Cc2ccccc2)C(=O)N[C@@H](C)C(=O)N2CCCCC2)NC(=O)[C@H](Cc2ccccc2)NC(=O)[C@H](CC(C)C)N(C)C1=O [DP-365] ([NMeGABA][NMeA]T[NMeA][NMeV]G[NMeL]L[NMeL]FD[NMeF]A-Piperidide; lactam N-11)"
experimental_endpoint = "Papp at 18 hours, 50 µM"
units = "×10⁻⁶ cm/s"
result_number = 20

[[record]]
compound = "CC(C)C[C@@H]1NC(=O)[C@H](Cc2ccccc2)N(C)C(=O)CNC(=O)[C@H]([C@@H](C)O)NC(=O)[C@H](CC(C)C)N(C)C(=O)[C@H](COC(C)(C)C)NC(=O)[C@H](C)N(C)C(=O)C[C@@H](C(=O)N2CCCCC2)NC(=O)[C@H](Cc2ccccc2)NC(=O)[C@H](CC(C)C)N(C)C1=O [DP-437] ([NMeA]S(tBu)[NMeL]TG[NMeF]L[NMeL]FD-Piperidide; lactam N-10)"
experimental_endpoint = "Papp at 18 hours, 50 µM"
units = "×10⁻⁶ cm/s"
result_number = 37

[[record]]
compound = "CC[C@H](C)[C@H](NC(=O)[C@H](Cc1ccccc1)N(C)C(=O)[C@H](CC(C)C)N(C)C(=O)[C@@H](NC(=O)[C@@H]1CC(=O)N(C)[C@@H](C)C(=O)N[C@@H]([C@@H](C)CC)C(=O)N(C)[C@@H](CC(C)C)C(=O)N[C@@H]([C@@H](C)O)C(=O)N[C@@H](CC(C)C)C(=O)N(C)[C@@H](Cc2cccc(Cl)c2)C(=O)N1)C(C)C)C(=O)N1CCCCC1 [DP-920] ([NMeA]I[NMeL]TL[NMePhe(3-Cl)]DV[NMeL][NMeF]I-Piperidide; lactam N-7)"
experimental_endpoint = "Papp at 18 hours, 50 µM"
units = "×10⁻⁶ cm/s"
result_number = 0.22


Turning to the following compound.
Reported Papp at 18 hours, 50 µM ( CC(C)C[C@@H]1NC(=O)[C@H](Cc2ccccc2)N(C)C(=O)CCN(C)C(=O)C[C@@H](C(=O)N2CCCCC2)NC(=O)[C@H](Cc2ccccc2)N(C)C(=O)[C@H](C)N(C)C(=O)[C@H]([C@@H](C)O)NC(=O)CN(C)C(=O)[C@H](C(C)C)N(C)C(=O)[C@H](C)NC(=O)[C@H](C(C)C)N(C)C(=O)[C@H](CC(C)C)N(C)C1=O [DP-318] ([NMeβAla][NMeF]L[NMeL][NMeV]A[NMeV][Sar]T[NMeA][NMeF]D-Piperidide; lactam N-12) ) = 26
